assay: Quantitative High-Throughput drug screen in 47 multiple myeloma cell lines against the NCATS MIPE library collection: KMS26_JCRB cell viability assay (AID 1918975); details: KMS26 myeloma cells viability, CellTiter-Glo ATP, 48 h; series mostly up to 45.8 µM; note: nearly all actives have a fitted effect of over 45% in size
Inconclusive results are not listed. Calls of active or inactive are those of the source. Calls come from the whole dose curve; as a rule, active = well fitted cell-killing curve with a large enough effect; inconclusive = small, poorly fitted or top-dose-only effect, or effect the other way; inactive = no such curve, though single readings can be large or run the other way.
# output must be one of t (active), f (inactive)

IN: Would you mind telling me which call this test gave CN[C@@H]1C[C@H]2O[C@@](C)([C@H]1OC)n1c3ccccc3c3c4c(c5c6ccccc6n2c5c31)C(=O)N[C@H]4O ?
OUT: t

IN: Would you mind telling me which call this test gave C=C1C(=O)O[C@H]2[C@@H]1CCC(C)=CCC[C@@]1(C)O[C@@H]21 ?
OUT: t

IN: Would you mind telling me which call this test gave O=C(c1ccc(F)cc1)N1CCC[C@H](c2nc(-c3ccc(F)cc3)no2)C1 ?
OUT: f

IN: Would you mind telling me which call this test gave C[C@H]1[C@@H](OC(=O)CCC(=O)O)O[C@@H]2O[C@@]3(C)CC[C@@H]4[C@H](C)CC[C@@H]1[C@@]24OO3 ?
OUT: t

IN: Would you mind telling me which call this test gave CCCCC(=O)O[C@]1(C(=O)CO)[C@@H](C)C[C@H]2[C@@H]3CCC4=CC(=O)C=C[C@]4(C)[C@@]3(F)[C@@H](O)C[C@@]21C ?
OUT: f

IN: Would you mind telling me which call this test gave CN(CC(=O)N(Cc1ccc(C2CCCCC2)cc1)c1ccc(C(=O)O)c(O)c1)S(=O)(=O)c1c(F)c(F)c(F)c(F)c1F ?
OUT: t

IN: Would you mind telling me which call this test gave CON=C(C(=O)N[C@@H]1C(=O)N2C(C(=O)O)=C(Cn3ccc(=N)n3CCO)CS[C@H]12)c1csc(N)n1 ?
OUT: f

IN: Would you mind telling me which call this test gave COC(=O)[C@H](CCCN=C(N)N)NS(=O)(=O)c1ccc(C)cc1 ?
OUT: f

IN: Would you mind telling me which call this test gave CN1CCCN(C(=O)c2cccc(-c3ccc(C=C4C(=O)Nc5ccc(Cl)cc54)o3)c2)CC1 ?
OUT: t

IN: Would you mind telling me which call this test gave CCS(=O)(=O)Nc1ccc2[nH]c(O)c(C(=Nc3ccc(CN4CCCCC4)cc3)c3ccccc3)c2c1 ?
OUT: t

IN: Would you mind telling me which call this test gave C=CCNC1=C2C[C@@H](C)C[C@H](OC)[C@@H](O)[C@@H](C)C=C(C)[C@H](OC(N)=O)[C@@H](OC)C=CC=C(C)C(=O)NC(=CC1=O)C2=O ?
OUT: t

IN: Would you mind telling me which call this test gave O=C1NC(O)CCN1[C@@H]1O[C@H](CO)[C@H](O)[C@H]1O (stereo partly specified) ?
OUT: f

IN: Would you mind telling me which call this test gave Cc1cnc(NC(=O)Nc2cc(Br)c(C)cc2OC[C@@H]2CNCCO2)cn1 ?
OUT: t

IN: Would you mind telling me which call this test gave C[C@H](NC(=O)[C@@H](O)c1cc(F)cc(F)c1)C(=O)N[C@@H]1C(=O)N(C)c2ccccc2-c2ccccc21 ?
OUT: f

IN: Would you mind telling me which call this test gave CC(C)OC(=O)[C@H](C)N[P@](=O)(OC[C@H]1O[C@@H](n2ccc(=O)[nH]c2=O)[C@](C)(F)[C@H]1O)Oc1ccccc1 ?
OUT: f

IN: Would you mind telling me which call this test gave CC(C)[C@H](CO)Nc1nc(Nc2cccc(Cl)c2)c2ncn(C(C)C)c2n1 ?
OUT: t
